# Assay summary: Clearance in Sprague-Dawley rat at 2 mg/kg, iv
# Type: ADME, organism-based
# Design: dose 2 mg/kg, route intravenous
# Conditions: in vivo
Assay metric: clearance (mL/min/kg)

{"columns": ["Chemical structure", "Readout value"],
 "data": [
  ["CC[C@@H](C)Nc1nc2ccc(-c3c(-c4ccccc4F)n[nH]c3N)cc2s1", 23.3]
]}

###

# Assay summary: Half life in Sprague-Dawley rat at 2 mg/kg, iv
# Assay type: ADME, organism-based
# Design: dose 2 mg/kg, route intravenous
# Conditions: in vivo
Assay metric: half-life (min)

{"columns": ["Chemical structure", "Units", "Readout value"],
 "data": [
  ["CC[C@@H](C)Nc1nc2ccc(-c3c(-c4ccccc4F)n[nH]c3N)cc2s1", "min", 102]
]}
